target entity: Prostaglandin G/H synthase 1 (Homo sapiens)
Sequence (P23219 whole entry): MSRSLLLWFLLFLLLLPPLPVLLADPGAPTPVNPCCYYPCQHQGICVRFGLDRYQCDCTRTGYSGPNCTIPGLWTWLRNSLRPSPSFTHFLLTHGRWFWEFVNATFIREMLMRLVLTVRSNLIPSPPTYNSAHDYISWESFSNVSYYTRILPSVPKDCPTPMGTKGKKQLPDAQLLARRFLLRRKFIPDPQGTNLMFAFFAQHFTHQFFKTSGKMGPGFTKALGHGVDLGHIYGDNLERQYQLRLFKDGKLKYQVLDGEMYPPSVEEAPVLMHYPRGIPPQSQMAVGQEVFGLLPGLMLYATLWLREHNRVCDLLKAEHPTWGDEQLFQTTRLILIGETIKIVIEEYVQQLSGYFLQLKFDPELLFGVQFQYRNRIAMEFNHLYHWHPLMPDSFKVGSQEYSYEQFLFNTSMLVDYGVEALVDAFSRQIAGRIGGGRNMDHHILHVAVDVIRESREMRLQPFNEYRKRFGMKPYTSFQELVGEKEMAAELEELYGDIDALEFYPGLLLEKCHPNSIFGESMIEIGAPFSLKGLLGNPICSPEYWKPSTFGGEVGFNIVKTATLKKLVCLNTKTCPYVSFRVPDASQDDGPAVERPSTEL
assay remarks: Inhibition of human whole blood COX-1 assessed as production of TXB2 after 24 hrs by EIA
pIC50: −log10 of the molar value.
Lab note: compare pIC50 against 4. Equal or greater, write YES. Smaller, write NO.

- compound: "CC(C(=O)O)c1ccc(C[C@H]2CCC[C@H]2O)cc1-c1ccc(O)cc1 (mixture of isomers)"
  class: "YES"
- compound: "COc1ccc(-c2cc(C(C)C(=O)O)ccc2CC2CCCC2=O)cc1 (configuration not stated)"
  class: "NO"
- compound: "Cc1ccc(-c2cc(CC3CCCC3=O)ccc2C(C)C(=O)O)cc1 (configuration not stated)"
  class: "NO"
- compound: "CC(C(=O)O)c1ccc(CC2CCCC2=O)c(Br)c1 (configuration not stated)"
  class: "YES"
- compound: "CC(C(=O)O)c1ccc(CC2CCCC2=O)c(-c2ccc(F)cc2)c1 (configuration not stated)"
  class: "NO"
- compound: "CC(C(=O)[O-])c1ccc(CC2CCCC2=O)cc1-c1ccc(O)cc1.[Na+] (configuration not stated)"
  class: "NO"
- compound: "Cc1ccc(-c2cc(C(C)C(=O)O)ccc2CC2CCCC2=O)cc1 (configuration not stated)"
  class: "YES"
- compound: "CC(C(=O)O)c1ccc(CC2CCCC2=O)cc1Cl (configuration not stated)"
  class: "YES"
- compound: "CC(C(=O)O)c1ccc(CC2CCCC2=O)cc1-c1ccc(C(=O)O)cc1 (configuration not stated)"
  class: "NO"
- compound: "CC(C(=O)O)c1ccc(CC2CCCC2=O)cc1I (configuration not stated)"
  class: "NO"
- compound: "CSc1ccc(-c2cc(C(C)C(=O)O)ccc2CC2CCCC2=O)cc1 (configuration not stated)"
  class: "NO"
- compound: "CC(C(=O)O)c1ccc(CC2CCCC2=O)c(-c2ccc(C(=O)O)cc2)c1 (configuration not stated)"
  class: "NO"
- compound: "CC(C(=O)O)c1ccc(CC2CCCC2=O)cc1-c1ccccc1 (configuration not stated)"
  class: "NO"
- compound: "COc1ccc(-c2cc(CC3CCCC3=O)ccc2C(C)C(=O)O)cc1 (configuration not stated)"
  class: "YES"
- compound: "CC(C(=O)O)c1ccc(C[C@H]2CCC[C@@H]2O)cc1-c1ccc(O)cc1 (mixture of isomers)"
  class: "NO"
- compound: "CC(C(=O)O)c1ccc(CC2CCCC2=O)c(-c2ccc(OC(F)(F)F)cc2)c1 (configuration not stated)"
  class: "NO"
- compound: "CC(C(=O)O)c1ccc(CC2CCCC2=O)cc1-c1ccc(OC(F)(F)F)cc1 (configuration not stated)"
  class: "NO"
- compound: "CC(C(=O)O)c1ccc(CC2CCCC2=O)c(-c2ccccc2)c1 (configuration not stated)"
  class: "YES"
- compound: "CC(C(=O)O)c1ccc(CC2CCCC2=O)c(-c2ccc(O)cc2)c1 (configuration not stated)"
  class: "NO"
- compound: "CC(C(=O)O)c1ccc(CC2CCCC2=O)cc1-c1ccc(F)cc1 (configuration not stated)"
  class: "NO"
- compound: "CSc1ccc(-c2cc(CC3CCCC3=O)ccc2C(C)C(=O)O)cc1 (configuration not stated)"
  class: "NO"

====

target entity: Prostaglandin G/H synthase 2 (Homo sapiens)
Sequence (P35354 whole entry): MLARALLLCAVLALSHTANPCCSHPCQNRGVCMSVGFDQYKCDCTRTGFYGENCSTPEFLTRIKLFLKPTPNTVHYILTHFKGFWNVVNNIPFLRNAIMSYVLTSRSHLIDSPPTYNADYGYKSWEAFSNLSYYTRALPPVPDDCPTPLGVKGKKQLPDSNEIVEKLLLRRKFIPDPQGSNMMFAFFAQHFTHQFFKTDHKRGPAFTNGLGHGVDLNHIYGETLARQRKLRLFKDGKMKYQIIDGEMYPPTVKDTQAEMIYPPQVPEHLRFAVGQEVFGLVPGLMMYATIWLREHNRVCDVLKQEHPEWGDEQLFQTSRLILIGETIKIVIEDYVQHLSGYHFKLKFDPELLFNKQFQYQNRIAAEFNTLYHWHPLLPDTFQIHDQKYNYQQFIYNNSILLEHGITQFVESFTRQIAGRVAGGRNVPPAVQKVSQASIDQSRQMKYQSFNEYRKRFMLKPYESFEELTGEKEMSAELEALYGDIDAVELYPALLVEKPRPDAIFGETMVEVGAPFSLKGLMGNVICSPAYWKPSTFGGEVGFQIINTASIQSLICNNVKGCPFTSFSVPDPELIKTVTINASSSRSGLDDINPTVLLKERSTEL
assay remarks: Inhibition of human whole blood COX-2 assessed as production of PGE2 after 24 hrs by EIA
pIC50: −log10 of the molar value.
Please note: t applies when pIC50 is 4 or greater, and f applies otherwise.

- compound: "CC(C(=O)O)c1ccc(CC2CCCC2=O)cc1-c1ccc(F)cc1 (stereo unspecified)"
  class: "t"
- compound: "CC(C(=O)O)c1ccc(CC2CCCC2=O)cc1-c1ccccc1 (stereo unspecified)"
  class: "t"
- compound: "Cc1ccc(-c2cc(C(C)C(=O)O)ccc2CC2CCCC2=O)cc1 (stereo unspecified)"
  class: "f"
- compound: "CC(C(=O)[O-])c1ccc(CC2CCCC2=O)cc1-c1ccc(O)cc1.[Na+] (stereo unspecified)"
  class: "t"
- compound: "CC(C(=O)O)c1ccc(CC2CCCC2=O)cc1[N+](=O)[O-] (stereo unspecified)"
  class: "t"
- compound: "CC(C(=O)O)c1ccc(CC2CCCC2=O)cc1-c1ccc(OC(F)(F)F)cc1 (stereo unspecified)"
  class: "f"
- compound: "CSc1ccc(-c2cc(C(C)C(=O)O)ccc2CC2CCCC2=O)cc1 (stereo unspecified)"
  class: "f"
- compound: "COc1ccc(-c2cc(CC3CCCC3=O)ccc2C(C)C(=O)O)cc1 (stereo unspecified)"
  class: "f"
- compound: "CC(C(=O)O)c1ccc(CC2CCCC2=O)c(Br)c1 (stereo unspecified)"
  class: "t"
- compound: "CC(C(=O)O)c1ccc(CC2CCCC2=O)c(-c2ccc(OC(F)(F)F)cc2)c1 (stereo unspecified)"
  class: "t"
- compound: "CC(C(=O)O)c1ccc(C[C@H]2CCC[C@H]2O)cc1-c1ccc(O)cc1 (mixture of isomers)"
  class: "t"
- compound: "COc1ccc(-c2cc(C(C)C(=O)O)ccc2CC2CCCC2=O)cc1 (stereo unspecified)"
  class: "f"
- compound: "CC(C(=O)O)c1ccc(CC2CCCC2=O)cc1I (stereo unspecified)"
  class: "f"
- compound: "CSc1ccc(-c2cc(CC3CCCC3=O)ccc2C(C)C(=O)O)cc1 (stereo unspecified)"
  class: "f"
- compound: "CC(C(=O)O)c1ccc(CC2CCCC2=O)c(-c2ccc(F)cc2)c1 (stereo unspecified)"
  class: "t"
- compound: "Cc1ccc(-c2cc(CC3CCCC3=O)ccc2C(C)C(=O)O)cc1 (stereo unspecified)"
  class: "f"
- compound: "CC(C(=O)O)c1ccc(C[C@H]2CCC[C@@H]2O)cc1-c1ccc(O)cc1 (mixture of isomers)"
  class: "t"
- compound: "CC(C(=O)O)c1ccc(CC2CCCC2=O)c(-c2ccccc2)c1 (stereo unspecified)"
  class: "f"
- compound: "CC(C(=O)O)c1ccc(CC2CCCC2=O)c(-c2ccc(C(=O)O)cc2)c1 (stereo unspecified)"
  class: "f"
- compound: "CC(C(=O)O)c1ccc(CC2CCCC2=O)cc1-c1ccc(C(=O)O)cc1 (stereo unspecified)"
  class: "t"
- compound: "CC(C(=O)O)c1ccc(CC2CCCC2=O)cc1Cl (stereo unspecified)"
  class: "t"

meta.source: ChEMBL document CHEMBL1811892
